molecular target: Aspartate--tRNA(Asp/Asn) ligase (Mycobacterium tuberculosis (strain ATCC 25618 / H37Rv)) (UniProt P9WFW3); test: Assay for Asp RNA synthetase-1 from Mycobacterium tuberculosis; assay type: functional; set-up: scale not given: direction of the effect not stated beside the values; settings: 30 µM; note: in the data most compounds retested in dose-response had high values
Sequence (P9WFW3 whole entry): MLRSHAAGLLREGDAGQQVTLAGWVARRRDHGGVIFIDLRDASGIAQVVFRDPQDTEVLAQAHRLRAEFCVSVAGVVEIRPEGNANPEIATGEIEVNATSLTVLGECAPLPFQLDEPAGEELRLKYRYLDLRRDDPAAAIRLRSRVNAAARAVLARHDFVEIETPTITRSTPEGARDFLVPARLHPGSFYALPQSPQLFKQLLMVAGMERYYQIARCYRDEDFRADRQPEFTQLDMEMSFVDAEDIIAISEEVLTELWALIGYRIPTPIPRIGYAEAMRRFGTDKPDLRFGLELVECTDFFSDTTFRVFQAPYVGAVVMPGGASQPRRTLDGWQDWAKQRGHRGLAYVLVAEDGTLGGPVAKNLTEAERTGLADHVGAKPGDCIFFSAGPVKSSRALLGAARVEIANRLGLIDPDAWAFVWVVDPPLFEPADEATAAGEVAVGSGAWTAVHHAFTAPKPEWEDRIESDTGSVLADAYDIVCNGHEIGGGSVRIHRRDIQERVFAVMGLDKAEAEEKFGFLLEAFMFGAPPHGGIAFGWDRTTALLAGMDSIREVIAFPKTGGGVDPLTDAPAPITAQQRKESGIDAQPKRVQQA
I'd appreciate it if you could supply Percent Effect values for the items below.
Answers are plain numbers, in %.

For every item in the list below, what is its measured Percent Effect?
1. O=C(CCOc1cccc(F)c1)N1CCCC(n2cncn2)C1 (centres undefined)
2. CC(C)[C@H](NC(=O)NC1CCS(=O)(=O)C1)C(=O)NCc1cccnc1 (some centres undefined)

1. -2.92
2. -2.09

For every item in the list below, what is its measured Percent Effect?
1. COc1ccc(C2Nc3ccccc3C3=NCCCN32)cc1OC (centres undefined)
2. CCC(NC(N)=O)c1ccccc1OCC(=O)N1CCCC1 (centres undefined)
3. O=C(Cc1ccc2c(c1)CCCC2)NCCc1ccccn1
4. c1cnn(-c2ccc(CN3CCOC(Cn4cncn4)C3)cc2)c1 (centres undefined)
5. CCOCCCNC(=O)c1cn(CC)nc1C
6. Cn1cc(C(=O)CC2CCCN2C(=O)c2cncc3ccccc23)cn1 (centres undefined)
7. CS(=O)(=O)c1ccc(NC(=O)NCc2ccc3c(c2)CCC3)cn1
8. CNc1cc(N2CCCC2CNCc2ccccn2)ncn1 (centres undefined)

[3.81, -1.5, 2.5, 4.05, -4.5, -4.82, 1.92, 1.56]

====

I'd appreciate it if you could supply Percent Effect values for the items below.
Molecular target: Tyrosyl-tRNA synthetase, putative (Trypanosoma cruzi (strain CL Brener))
Sequence (whole entry): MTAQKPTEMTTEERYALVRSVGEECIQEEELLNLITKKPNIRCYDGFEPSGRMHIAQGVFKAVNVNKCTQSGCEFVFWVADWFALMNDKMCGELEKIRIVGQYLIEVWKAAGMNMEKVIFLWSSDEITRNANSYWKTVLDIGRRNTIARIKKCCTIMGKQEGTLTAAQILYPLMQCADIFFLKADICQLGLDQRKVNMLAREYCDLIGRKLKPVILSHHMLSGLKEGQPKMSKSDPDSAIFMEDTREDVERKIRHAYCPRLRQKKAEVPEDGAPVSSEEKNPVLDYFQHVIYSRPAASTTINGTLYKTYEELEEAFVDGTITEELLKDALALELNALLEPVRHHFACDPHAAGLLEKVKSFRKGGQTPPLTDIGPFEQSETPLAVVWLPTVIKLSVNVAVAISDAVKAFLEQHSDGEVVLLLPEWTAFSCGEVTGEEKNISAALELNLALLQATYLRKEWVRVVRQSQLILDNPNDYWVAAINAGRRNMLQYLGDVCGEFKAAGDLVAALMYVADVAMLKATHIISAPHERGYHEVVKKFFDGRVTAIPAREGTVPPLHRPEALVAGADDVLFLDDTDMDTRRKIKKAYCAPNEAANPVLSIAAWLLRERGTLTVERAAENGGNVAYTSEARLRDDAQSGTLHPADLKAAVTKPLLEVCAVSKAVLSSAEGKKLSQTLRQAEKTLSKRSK
Assay: Trypanosoma cruzi tyrosyl tRNA synthetase (TcYRS) SOP
Assay type: functional
Parameters: scale not given: direction of the effect not stated beside the values
Settings: 30 µM
Numbers only, in %.

Worked cases, answers included:
record_smiles	Percent Effect / %
O=C(Cc1csc(-c2ccco2)n1)N1CCN(CCO)CC1	5.06
NC(=O)N1CC2(CCNCC2)c2cc(Cl)ccc21	-2.5

Attention now turns to another entry.
What value of Percent Effect on Tyrosyl-tRNA synthetase, putative (Trypanosoma cruzi (strain CL Brener)) does `CN(Cc1cncnc1)[C@H]1CN(CC2CC2)[C@@H]2CCCO[C@@H]21` have?
2.5

====

biological target: Aspartate--tRNA(Asp/Asn) ligase (Mycobacterium tuberculosis (strain ATCC 25618 / H37Rv)); experiment: Assay for Asp RNA synthetase-1 from Mycobacterium tuberculosis; type: functional; set-up: scale not given: direction of the effect not stated beside the values; details: 30 µM; note: in the data most compounds retested in dose-response had high values
I'd appreciate it if you could supply Percent Effect values for the items below.
Answers are plain numbers, in %.

Worked cases, answers included:
compound	assay_value
CS(=O)(=O)NCC1CCCN(C(=O)COCC(F)(F)F)C1 (stereo not given)	-4.43
CCNC(=O)[C@@H]1C[C@@H](NC(=O)Cc2ccncc2)CN1Cc1ccsc1	-3.17
C[C@@H]1CN(C(=O)c2ccc(C#N)nc2)CC[C@@]1(O)C1CCOCC1	-2.71
O=C(c1cc(Cl)cc(Cl)c1)N1CCN(c2nccs2)CC1	-0.345

For every item in the list below, what is its measured Percent Effect?
1. CC(=O)c1cccc(OCCCC(=O)N(C)Cc2cccc(O)c2)c1
2. CC(C)(C)C(=O)NS(=O)(=O)c1ccc(C#N)cc1C(F)(F)F
3. C[C@H]1C[C@@H]2CCN(Cc3ccccn3)C[C@H]2O1

-2.31
0.681
-1.48

====

biological target: Shiga toxin 2 (Escherichia coli O157:H7) (UniProt P09385+P09386); assay: E. coli 0.157:H7 Shiga Toxin SOP - stx2 screening assay; assay type: functional; set-up: scale not given: direction of the effect not stated beside the values; details: 30 µM
property: Percent Effect

Worked cases, answers included:
compound	assay_value
CCOc1cc(C(=O)N2CCCC(c3cc(C(N)=O)[nH]n3)C2)ccn1 (stereo not drawn)	25.9%
CCC1CN(CCNC(C)=O)CCN1CCOC (stereo not drawn)	16.5%
C[C@@H]1C[C@@H]2CCN(C(=O)c3cnccn3)C[C@H]2O1	-15.2%
Cc1ccc(N2CC[C@H]3OCC[C@@]3(C(=O)NC(C)C)C2)nn1	7.17%

For every item in the list below, what is its measured Percent Effect?
1. Cc1cccc(CN2CCc3c(nc(N4CCCCC4C)[nH]c3=O)C2)n1 (stereo not drawn)
2. N#Cc1cccc(CN2CC[C@@H]3[C@@H]2CC(=O)N3Cc2cccnc2)c1
3. CCOCC(=O)N1CCC(Oc2ccc(C(F)(F)F)cn2)CC1
4. COc1ccc(NC(=O)NC(C)(C)c2noc(C)n2)cc1

1: 21.7%; 2: -0.447%; 3: 12.5%; 4: -8.05%

====

I'd appreciate it if you could supply Percent Effect values for the items below.
molecular target: Aspartate--tRNA(Asp/Asn) ligase (Mycobacterium tuberculosis (strain ATCC 25618 / H37Rv)) (UniProt P9WFW3); experiment: Assay for Asp RNA synthetase-1 from Mycobacterium tuberculosis; format: functional; set-up: scale not given: direction of the effect not stated beside the values; conditions: 30 µM; note: in the data most compounds retested in dose-response had high values
Answers are plain numbers, in %.

Worked cases, answers included:
molecule	result_unit	Percent Effect
c1ccc(-c2ccc(C3CNCCO3)nc2)cc1 (stereo not drawn)	%	7.81
Cc1noc([C@@]23CCO[C@@H]2CCN(CC2CCOCC2)C3)n1	%	6.14

Attention now turns to another entry.
Quick check: Percent Effect of `CN1CCN(Cc2ccccc2CNC(=O)c2ccc(Br)cc2)CC1` ?
-0.466

====

target: Shiga toxin 2 (Escherichia coli O157:H7) (UniProt P09385+P09386); test: E. coli 0.157:H7 Shiga Toxin SOP - stx2 screening assay; assay type: functional; set-up: scale not given: direction of the effect not stated beside the values; settings: 30 µM
property: Percent Effect (%)
Answers are plain numbers, in %.

molecule	Percent Effect [%]
CNc1nc2c(s1)C(c1cccc(F)c1F)CC(=O)N2 (configuration not stated)	3.28

For every item in the list below, what is its measured Percent Effect?
1. CC(C)(C)c1n[nH]c(C2CN(C(=O)c3csnn3)CCO2)n1 (configuration not stated)
2. COCc1cc(NCCc2ccc(F)cc2)n2nccc2n1
3. Cc1nc(COCc2cnc3n2CCN(C2CCC2)C3C)cs1 (configuration not stated)
4. c1cncc(OC[C@@H]2CC[C@H]3[C@H](CCN3Cc3cccs3)O2)c1
5. O=C(N[C@@H]1CN(Cc2cccs2)[C@@H]2CCCO[C@@H]21)C1CC1

5.88
4.14
-5.21
-5.68
-24

For every item in the list below, what is its measured Percent Effect?
1. c1ccc(-c2nc(CN3CCCC(Cn4cncn4)C3)no2)cc1 (configuration not stated)
2. Cn1cc(-c2cnc(N3CCCC3)nc2)cc1C(=O)O
3. O=c1cc(Cn2cncn2)nc2n1CCCN(CC1CC1)C2

1: 7.88; 2: 10.6; 3: -0.568

For every item in the list below, what is its measured Percent Effect?
1. CN(Cc1ncc(-c2ccccc2)o1)CC1CCCN1c1cccnn1 (configuration not stated)
2. Cc1nnc(N2CCC(CS(N)(=O)=O)CC2)c(C#N)c1C

[5.15, 21.6]

For every item in the list below, what is its measured Percent Effect?
1. COc1ccc(-n2nnc(C(=O)NC(C)C)c2C2CC2)cc1
2. Cc1cc(-c2cnc(NC3CC3)nc2-c2ccc(C)o2)on1
3. Cn1cc(CN2CC3(CCN(C(=O)c4ccoc4)C3)C2)cn1
4. COc1ccc(CN(C)CC2(O)CCN(C(=O)c3cccn3C)C2)cc1 (configuration not stated)
5. O=C1COC2(CCN(CC3CC3)CC2)CN1c1ccccc1
6. CC1CCCN(Cc2csc(-c3ncccn3)n2)CC1 (configuration not stated)

1. 10.4
2. 0.454
3. -8.68
4. -5.84
5. 5.01
6. -26.7
